test-system: Type-1 angiotensin II receptor (Homo sapiens)
Sequence (P30556 whole entry): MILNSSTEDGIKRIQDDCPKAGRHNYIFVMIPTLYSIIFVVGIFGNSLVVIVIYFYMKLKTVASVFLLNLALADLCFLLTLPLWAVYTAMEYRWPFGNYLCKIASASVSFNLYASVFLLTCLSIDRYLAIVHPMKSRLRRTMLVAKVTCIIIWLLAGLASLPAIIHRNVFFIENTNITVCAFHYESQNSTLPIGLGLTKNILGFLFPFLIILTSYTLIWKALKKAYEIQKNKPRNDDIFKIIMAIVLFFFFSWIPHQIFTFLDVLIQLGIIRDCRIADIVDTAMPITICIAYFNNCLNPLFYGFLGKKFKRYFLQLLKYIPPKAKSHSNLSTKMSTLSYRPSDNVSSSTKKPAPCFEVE
procedure-text: AT1 receptor antagonists, dose response, selectivity assay for APJ receptor antagonist project, cell-based, uHTS hits (AID 463214);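 note: antagonist potency against angiotensin II stimulated AT1 response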
Assay type: functional
Active and inactive are the calls of the source.
value-type: IC50

Examples from the recorded data:
[[record]]
compound = "Cc1nc(-n2nc3c(c2O)CCCC3)[nH]c(=O)c1Cc1ccccc1"
value_type = "IC50"
reported_result = "14.2 µM (active)"

[[record]]
compound = "CCCCNC(=S)NNC(=O)CCn1nc(C)c(Br)c1C"
value_type = "IC50"
reported_result = "> 40 µM (not active)"

[[record]]
compound = "CC(C)Oc1cccc(C(=O)NC(=S)Nc2cccnc2)c1"
value_type = "IC50"
reported_result = "> 40 µM (not active)"

[[record]]
compound = "CCOC(=O)C1=NNC(C(=O)c2ccc(Cl)cc2)C1c1ccccc1 (stereo not drawn)"
value_type = "IC50"
reported_result = "39.9 µM (not active)"

[[record]]
compound = "O=C(COC(=O)c1ccc(Br)o1)c1ccc(S(=O)(=O)N2CCCCC2)cc1"
value_type = "IC50"
reported_result = "23.2 µM (not active)"

[[record]]
compound = "O=C(CCN1C(=O)C2C3CC(C(Br)C3Br)C2C1=O)OCC(=O)c1cccc([N+](=O)[O-])c1 (stereo not drawn)"
value_type = "IC50"
reported_result = "28.4 µM (not active)"

[[record]]
compound = "CCN(CC)CC(=O)c1ccc(-c2ccccc2)cc1"
value_type = "IC50"
reported_result = "18.8 µM (active)"


Moving on to another compound below.
Task: For `CCN1C(=O)C(=Cc2cccc(OC)c2Oc2ccc([N+](=O)[O-])cc2[N+](=O)[O-])SC1=S` , what is its reported IC50?
Output: > 40 µM (not active)

* * *

test-system: NAD-dependent protein deacylase sirtuin-5, mitochondrial (Homo sapiens, UniProt Q9NXA8)
Sequence (Q9NXA8 whole entry): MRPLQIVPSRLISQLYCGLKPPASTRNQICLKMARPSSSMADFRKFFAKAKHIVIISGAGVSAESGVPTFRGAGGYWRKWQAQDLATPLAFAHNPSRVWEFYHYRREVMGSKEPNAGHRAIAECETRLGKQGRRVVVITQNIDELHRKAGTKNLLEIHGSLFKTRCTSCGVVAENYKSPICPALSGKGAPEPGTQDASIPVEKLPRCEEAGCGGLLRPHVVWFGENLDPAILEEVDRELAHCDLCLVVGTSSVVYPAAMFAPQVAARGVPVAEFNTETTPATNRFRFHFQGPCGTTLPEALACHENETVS
procedure-text: SIRT5 desuccinylase inhibitors, dose response, biochemical, fluorescence imaging, cherry-pick, set 5 (AID 720591);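 note: desuccinylation of succinyl peptide AMC substrate read as fluorescence after trypsin release; potency of inhibitors that lower fluorescence and may act on trypsin instead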
Active and inactive are the calls of the source.
Returns: one label drawn from Yes (active), No (inactive)

// known answers, use as guide
[[record]]
molecule = "Cc1ccc(S(=O)(=O)OCC(=O)Nc2ccc(C(=O)O)c(O)c2)cc1"
class = "Yes"

[[record]]
molecule = "COc1ccc(C(=O)Nc2cc(O)nc3ncnn23)cc1"
class = "Yes"

[[record]]
molecule = "C=CCc1cc(OC)ccc1OCCN1CC(C)OC(C)C1 (stereo not given)"
class = "No"

[[record]]
molecule = "COc1ccccc1CNC(=O)C1CCC(CNS(=O)(=O)c2ccc(F)cc2)CC1 (stereo not given)"
class = "No"


Next up:
Task: For this molecule, state the assay outcome: `O=C(c1[nH]c(C(F)(F)F)nc1-c1ccccc1)N1CCCN(Cc2ccc(F)cc2)CC1`
Output: No

* * *

procedure-text: control 3'UTR Renilla luciferase suppression, dose response, counter-screen for Shn3 inhibitor project, cell-based, Clone20-Shn3RL, cherry-picked (AID 624133)
Format: functional
Calls of active or inactive are those of the source.
value-type: AC50

A selection of reference data follows.
[[record]]
smiles_notation = "CCOc1ccc(S(=O)(=O)NCc2ccncc2)cc1"
reported_result = "10.5 µM (active)"

[[record]]
smiles_notation = "CCOC(=O)c1nc(S(C)(=O)=O)ncc1Cl"
reported_result = "20.5 µM (active)"

[[record]]
smiles_notation = "CC(=O)Nc1ccc(OCC(=O)Nc2ccc(Cl)c(S(=O)(=O)N3CCOCC3)c2)cc1"
reported_result = "9.23 µM (active)"


Consider now this further molecule.
Task: Field request: AC50 | item: `COc1ccc(-n2nnnc2-c2cnc(N3CCCC3)nc2C(F)(F)F)cc1`
Output: 4.77 µM (active)
